Kindly supply the reported pIC50 values for the records listed here.
- study_system: Amine oxidase [flavin-containing] B (Homo sapiens, UniProt P27338)
- Sequence (P27338 whole entry): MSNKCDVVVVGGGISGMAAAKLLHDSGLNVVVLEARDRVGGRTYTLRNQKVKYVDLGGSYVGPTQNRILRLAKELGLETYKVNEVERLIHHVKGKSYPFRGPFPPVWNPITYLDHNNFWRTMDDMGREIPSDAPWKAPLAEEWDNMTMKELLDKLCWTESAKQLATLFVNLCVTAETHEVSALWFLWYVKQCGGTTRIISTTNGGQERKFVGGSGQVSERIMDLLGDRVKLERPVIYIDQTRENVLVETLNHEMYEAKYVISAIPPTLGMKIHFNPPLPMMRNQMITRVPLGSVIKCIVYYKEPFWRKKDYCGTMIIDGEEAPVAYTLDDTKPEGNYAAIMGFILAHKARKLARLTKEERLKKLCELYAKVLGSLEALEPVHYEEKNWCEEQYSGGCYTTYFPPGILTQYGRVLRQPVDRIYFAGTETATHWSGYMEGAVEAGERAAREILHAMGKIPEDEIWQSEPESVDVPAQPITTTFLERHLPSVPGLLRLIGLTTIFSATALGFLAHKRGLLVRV
- procedure_details: Inhibition of recombinant human MAO-B using kynuramine as substrate after 20 mins by fluorescence assay
pIC50: −log10 of the molar value.

                                   compound  recorded_value
0  c1ccc(CNC23OC4C5C6CC(C7C6C4C72)C53)cc1 (centres undefined)          < 4.00

Field: pIC50. Fill in for each record below.
1. Nc1ccc(CN2C3C4C5CC6C7C5C3C7C2(O)C64)cc1 (centres undefined)
2. C#CCNCc1ccc(CN2C3C4C5CC6C7C5C3C7C2(O)C64)cc1 (centres undefined)
3. NCc1ccc(CN2C3C4C5CC6C7C5C3C7C2(O)C64)cc1 (centres undefined)

< 4.00
5.42
< 4.00

====

- study_system: Glutamate [NMDA] receptor (Homo sapiens) (UniProt Q05586+Q12879+Q13224+O15399+O60391+Q14957+Q8TCU5)
- procedure_details: Antagonist activity at NMDA receptor in human SH-SY5Y cells assessed as reduction in NMDA/glycine-stimulated calcium influx at 10 uM preincubated for 30 mins in presence of Mag-Fura-2/AM dye followed by NMDA/glycine stimulation and measured over 35 secs by fluorescence assay (reference value: 100%)
- Format: cell-based
Activity calls are given as the source filed them. No cut-off for these calls is given here.
measurement_kind: inhibition

Some solved entries appear below for comparison.
>>> print(df.to_string())
                                   compound  measurement_kind  recorded_value
0  Nc1ccc(CNC23OC4C5C6CC(C7C6C4C72)C53)cc1 (stereo unspecified)        inhibition        inactive
1  C#CCNCc1ccc(CNC2C3C4CC5C6C4C2C6C2(OCCO2)C53)cc1 (stereo unspecified)        inhibition           63.9%
2  NCc1ccc(CN2C3C4C5CC6C7C5C3C7C2(O)C64)cc1 (stereo unspecified)        inhibition             59%
3  C#CCN1C2C3C4CC5C6C4C2C6C1(O)C53 (stereo unspecified)        inhibition              4%
4  NCc1ccc(C/N=C2/C3C4CC5C6C4C2C6C2(OCCO2)C53)cc1 (stereo unspecified)        inhibition           49.5%

Field: inhibition. Fill in for each record below.
1. C#CCNCc1ccc(CNC23OC4C5C6CC(C7C6C4C72)C53)cc1 (stereo unspecified)
2. Nc1ccc(C/N=C2/C3C4CC5C6C4C2C6C2(OCCO2)C53)cc1 (stereo unspecified)
3. Nc1ccc(CN2C3C4C5CC6C7C5C3C7C2(O)C64)cc1 (stereo unspecified)
4. C#CCNCc1ccc(CN2C3C4C5CC6C7C5C3C7C2(O)C64)cc1 (stereo unspecified)
5. C#CCNC12OC3C4C5CC(C6C5C3C61)C42 (stereo unspecified)
6. COCCOC(=O)C1=C(C)NC(C)=C(C(=O)OC(C)C)C1c1cccc([N+](=O)[O-])c1 (stereo unspecified)
7. NCc1ccc(CNC2C3C4CC5C6C4C2C6C2(OCCO2)C53)cc1 (stereo unspecified)

1: 31.4%; 2: 63.1%; 3: 11.9%; 4: 0.6%; 5: inactive; 6: inactive; 7: inactive

Field: inhibition. Fill in for each record below.
1. C#CCNCc1ccc(C/N=C2/C3C4CC5C6C4C2C6C2(OCCO2)C53)cc1 (stereo unspecified)
2. c1cc(C/N=C2\C3C4CC5C6C4C2C6C2(OCCO2)C53)ccc1C/N=C1/C2C3CC4C5C3C1C5C1(OCCO1)C42 (stereo unspecified)
3. ClCc1ccc(CNC23OC4C5C6CC(C7C6C4C72)C53)cc1 (stereo unspecified)
4. c1ccc(CNC23OC4C5C6CC(C7C6C4C72)C53)cc1 (stereo unspecified)

["88.3%", "70.5%", "26.1%", "32.5%"]

====

- study_system: Amine oxidase [flavin-containing] A (Homo sapiens, UniProt P21397)
- Sequence (P21397 whole entry): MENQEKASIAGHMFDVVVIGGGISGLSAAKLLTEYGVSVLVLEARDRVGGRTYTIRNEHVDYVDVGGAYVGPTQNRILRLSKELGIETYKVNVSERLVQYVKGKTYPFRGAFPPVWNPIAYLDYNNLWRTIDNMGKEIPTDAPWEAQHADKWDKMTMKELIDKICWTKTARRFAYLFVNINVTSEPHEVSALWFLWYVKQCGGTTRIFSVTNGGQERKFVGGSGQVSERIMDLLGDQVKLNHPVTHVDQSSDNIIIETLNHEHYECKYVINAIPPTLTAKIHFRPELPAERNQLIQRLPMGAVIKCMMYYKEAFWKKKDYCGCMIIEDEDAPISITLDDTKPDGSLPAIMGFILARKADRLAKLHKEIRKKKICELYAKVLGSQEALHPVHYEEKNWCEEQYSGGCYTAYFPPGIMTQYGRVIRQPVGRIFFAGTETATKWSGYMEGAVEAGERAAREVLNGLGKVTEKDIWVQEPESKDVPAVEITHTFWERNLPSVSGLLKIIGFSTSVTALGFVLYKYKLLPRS
- procedure_details: Inhibition of recombinant human MAO-A using kynuramine as substrate after 20 mins by fluorescence assay
Kindly supply the reported IC50 values for the records listed here.

>>> df
                                   compound  recorded_value
0  C#CCNCc1ccc(CN2C3C4C5CC6C7C5C3C7C2(O)C64)cc1 (centres undefined)         56.2 µM
1  Nc1ccc(CN2C3C4C5CC6C7C5C3C7C2(O)C64)cc1 (centres undefined)        > 100 µM
2  c1ccc(CNC23OC4C5C6CC(C7C6C4C72)C53)cc1 (centres undefined)        > 100 µM

Here's the next entry for you.
Quick note, IC50 for NCc1ccc(CN2C3C4C5CC6C7C5C3C7C2(O)C64)cc1 (centres undefined) landed at > 100 µM
